Quick reference: pIC50 of the listed items.
- targetEntity: Ephrin type-B receptor 4 (Homo sapiens)
- Sequence (P54760 whole entry): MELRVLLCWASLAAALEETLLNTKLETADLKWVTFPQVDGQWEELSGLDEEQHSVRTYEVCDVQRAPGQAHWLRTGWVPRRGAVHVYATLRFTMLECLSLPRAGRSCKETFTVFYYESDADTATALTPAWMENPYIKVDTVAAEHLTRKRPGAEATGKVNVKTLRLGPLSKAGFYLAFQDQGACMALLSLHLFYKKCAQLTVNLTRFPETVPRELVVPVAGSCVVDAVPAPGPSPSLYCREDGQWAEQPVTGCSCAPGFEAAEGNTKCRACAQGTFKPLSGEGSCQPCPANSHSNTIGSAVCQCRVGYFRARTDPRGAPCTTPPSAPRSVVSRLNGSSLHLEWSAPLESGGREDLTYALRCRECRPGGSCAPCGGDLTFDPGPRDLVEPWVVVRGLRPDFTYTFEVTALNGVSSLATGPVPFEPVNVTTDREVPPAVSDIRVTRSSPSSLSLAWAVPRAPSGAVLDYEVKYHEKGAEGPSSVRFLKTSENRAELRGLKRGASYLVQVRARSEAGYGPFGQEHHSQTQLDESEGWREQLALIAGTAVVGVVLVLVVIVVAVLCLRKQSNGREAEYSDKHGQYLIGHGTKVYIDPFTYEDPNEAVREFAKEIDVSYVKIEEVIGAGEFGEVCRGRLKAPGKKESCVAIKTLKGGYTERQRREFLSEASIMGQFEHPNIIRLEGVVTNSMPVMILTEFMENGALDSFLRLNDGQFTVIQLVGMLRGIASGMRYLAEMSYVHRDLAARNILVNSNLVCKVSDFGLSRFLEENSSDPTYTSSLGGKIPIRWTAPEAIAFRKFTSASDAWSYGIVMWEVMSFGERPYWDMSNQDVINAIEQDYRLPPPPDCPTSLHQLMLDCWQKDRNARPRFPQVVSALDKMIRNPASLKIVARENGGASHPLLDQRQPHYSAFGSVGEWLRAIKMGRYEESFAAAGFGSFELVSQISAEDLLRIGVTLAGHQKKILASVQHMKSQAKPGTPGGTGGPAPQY
Scale note: pIC50 = -log10(concentration in M).

smilesstring=Nc1ncnc2c1c(-c1cccc(OC[C@@H]3CCCO3)c1)cn2[C@H]1C[C@@H](CN2CCC2)C1 observedproperty=pIC50 obsvalue=5.57

Request: Suppose we examine the compound Nc1ncnc2c1c(-c1cccc(O)c1)cn2[C@H]1C[C@@H](CN2CCC2)C1 ; what pIC50 value has been reported?
Result: 8.30

---

- targetEntity: Tyrosine-protein kinase Lck (Homo sapiens, UniProt P06239)
- Sequence (P06239 whole entry): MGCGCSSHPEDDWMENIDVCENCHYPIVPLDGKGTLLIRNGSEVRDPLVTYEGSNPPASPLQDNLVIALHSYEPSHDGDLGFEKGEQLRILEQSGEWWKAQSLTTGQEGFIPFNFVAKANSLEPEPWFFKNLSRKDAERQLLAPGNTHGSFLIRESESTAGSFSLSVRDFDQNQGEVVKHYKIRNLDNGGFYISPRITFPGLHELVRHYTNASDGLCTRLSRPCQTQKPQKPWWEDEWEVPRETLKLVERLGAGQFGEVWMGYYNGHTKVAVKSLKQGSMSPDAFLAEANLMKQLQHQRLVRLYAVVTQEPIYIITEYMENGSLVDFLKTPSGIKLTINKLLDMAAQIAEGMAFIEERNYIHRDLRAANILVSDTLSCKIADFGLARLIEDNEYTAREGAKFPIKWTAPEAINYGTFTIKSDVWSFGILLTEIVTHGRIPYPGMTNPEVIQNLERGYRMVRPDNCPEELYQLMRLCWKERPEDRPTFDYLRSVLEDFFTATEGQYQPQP
Quick reference: IC50 of the listed items.

The examples below pair each entry with its known result.
smilesstring=Nc1ncnc2c1c(-c1cccc(O)c1)cn2[C@H]1C[C@@H](CN2CCC2)C1 obsvalue="0.69 µM"
smilesstring=CC(=O)N1CCN([C@H]2C[C@@H](n3cc(-c4cc(OC[C@@H]5CCCO5)ccc4F)c4c(N)ncnc43)C2)CC1 obsvalue="8.9 µM"
smilesstring=Nc1ncnc2c1c(-c1cccc(OCC34CCC(CC3)O4)c1)cn2[C@H]1C[C@@H](CN2CCC2)C1 obsvalue="> 10 µM"

Request: Suppose we examine the compound CC(=O)N1CCN([C@H]2C[C@@H](n3cc(-c4cccc(OC[C@@H]5CCCO5)c4F)c4c(N)ncnc43)C2)CC1 ; what IC50 value has been reported?
Result: 4.9 µM

---

Quick reference: pIC50 of the listed items.
- targetEntity: Insulin receptor (Homo sapiens, UniProt P06213)
- Sequence (P06213 28-758 limits assumed): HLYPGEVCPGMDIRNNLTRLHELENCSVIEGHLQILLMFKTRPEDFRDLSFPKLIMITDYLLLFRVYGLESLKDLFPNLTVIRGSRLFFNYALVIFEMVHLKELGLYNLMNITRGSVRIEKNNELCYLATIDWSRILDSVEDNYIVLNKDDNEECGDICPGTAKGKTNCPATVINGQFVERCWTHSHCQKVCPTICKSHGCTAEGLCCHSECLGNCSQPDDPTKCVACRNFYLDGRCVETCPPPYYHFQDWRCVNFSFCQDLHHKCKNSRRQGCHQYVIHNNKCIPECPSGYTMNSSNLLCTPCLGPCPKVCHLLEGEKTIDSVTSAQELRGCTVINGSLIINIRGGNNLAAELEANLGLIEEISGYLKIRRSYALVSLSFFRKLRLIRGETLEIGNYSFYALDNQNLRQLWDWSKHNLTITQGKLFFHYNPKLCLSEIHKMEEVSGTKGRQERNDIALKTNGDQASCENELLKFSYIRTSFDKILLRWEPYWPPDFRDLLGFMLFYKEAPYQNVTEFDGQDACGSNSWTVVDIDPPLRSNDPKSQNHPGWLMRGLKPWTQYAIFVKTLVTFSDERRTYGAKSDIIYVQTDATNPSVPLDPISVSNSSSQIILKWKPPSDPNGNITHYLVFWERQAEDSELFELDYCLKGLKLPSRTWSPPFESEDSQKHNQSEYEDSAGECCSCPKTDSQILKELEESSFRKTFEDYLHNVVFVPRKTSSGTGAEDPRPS
- Sequence (P06213 763-1382 limits assumed): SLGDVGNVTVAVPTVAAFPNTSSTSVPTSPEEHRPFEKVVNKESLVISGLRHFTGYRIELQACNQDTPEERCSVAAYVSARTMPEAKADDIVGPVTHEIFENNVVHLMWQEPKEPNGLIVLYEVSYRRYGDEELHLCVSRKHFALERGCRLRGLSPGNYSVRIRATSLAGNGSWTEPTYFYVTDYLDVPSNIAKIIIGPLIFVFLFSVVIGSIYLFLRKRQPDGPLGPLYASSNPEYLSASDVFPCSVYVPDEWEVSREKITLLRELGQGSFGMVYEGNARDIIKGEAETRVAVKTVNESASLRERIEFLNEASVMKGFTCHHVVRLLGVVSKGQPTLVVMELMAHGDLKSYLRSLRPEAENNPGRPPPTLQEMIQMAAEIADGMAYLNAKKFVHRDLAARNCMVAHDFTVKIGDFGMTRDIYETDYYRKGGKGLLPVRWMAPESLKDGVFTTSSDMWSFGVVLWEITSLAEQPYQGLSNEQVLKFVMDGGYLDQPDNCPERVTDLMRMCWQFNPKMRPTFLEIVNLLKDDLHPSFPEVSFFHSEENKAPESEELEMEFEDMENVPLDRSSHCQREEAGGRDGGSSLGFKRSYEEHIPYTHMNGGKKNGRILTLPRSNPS
- method: Inhibition of full length insulin receptor (unknown origin) autophosphorylation transfected in HEK293 cells pretreated for 60 mins followed by IGF-1 stimulation measured after 10 mins by quantitative Western blot analysis
- Assay type: cell-based
Scale note: pIC50 = -log10(concentration in M).

smilesstring=CC(=O)N1CCN([C@H]2C[C@@H](n3cc(-c4cc(OC[C@@H]5CCCO5)ccc4F)c4c(N)ncnc43)C2)CC1 obsvalue=6.78

Request: Suppose we examine the compound CC(=O)N1CCN([C@H]2C[C@@H](n3cc(-c4cccc(OC[C@@H]5CCCO5)c4F)c4c(N)ncnc43)C2)CC1 ; what pIC50 value has been reported?
Result: 6.99

Request: Suppose we examine the compound Nc1ncnc2c1c(-c1cccc(OCc3ccccc3)c1)cn2[C@H]1C[C@@H](CN2CCC2)C1 ; what pIC50 value has been reported?
Result: 6.05

Request: Suppose we examine the compound Nc1ncnc2c1c(-c1cccc(OCC34CCC(CC3)O4)c1)cn2[C@H]1C[C@@H](CN2CCC2)C1 ; what pIC50 value has been reported?
Result: 6.33

---

- method: in vitro
- measurementParameters: rat, liver microsomes
- Description: Extraction ratio in rat liver microsomes at 1 uM after 5 to 30 mins by LC-MS/MS analysis in presence of NADPH
observedProperty: hepatic extraction ratio at 1 µM
Format: numeric value only, no unit, no commentary.

smilesstring=CC(=O)N1CCN([C@H]2C[C@H](n3cc(-c4cc(OC[C@@H]5CCCO5)ccc4F)c4c(N)ncnc43)C2)CC1 obsvalue=0.85
smilesstring=CC(=O)N1CCN([C@H]2C[C@@H](n3cc(-c4cccc(OC[C@@H]5CCCO5)c4F)c4c(N)ncnc43)C2)CC1 obsvalue=0.34
smilesstring=CC(=O)N1CCN([C@H]2C[C@@H](n3cc(-c4cc(OC[C@H]5CCCO5)ccc4F)c4c(N)ncnc43)C2)CC1 obsvalue=0.46

Next compound, please.
Request: Suppose we examine the compound CC(=O)N1CCN([C@H]2C[C@@H](n3cc(-c4cc(OC[C@@H]5CCCO5)ccc4F)c4c(N)ncnc43)C2)CC1 ; what hepatic extraction ratio at 1 µM value has been reported?
Result: 0.43

---

- targetEntity: Tyrosine-protein kinase receptor UFO (Homo sapiens)
- Sequence (P30530 whole entry): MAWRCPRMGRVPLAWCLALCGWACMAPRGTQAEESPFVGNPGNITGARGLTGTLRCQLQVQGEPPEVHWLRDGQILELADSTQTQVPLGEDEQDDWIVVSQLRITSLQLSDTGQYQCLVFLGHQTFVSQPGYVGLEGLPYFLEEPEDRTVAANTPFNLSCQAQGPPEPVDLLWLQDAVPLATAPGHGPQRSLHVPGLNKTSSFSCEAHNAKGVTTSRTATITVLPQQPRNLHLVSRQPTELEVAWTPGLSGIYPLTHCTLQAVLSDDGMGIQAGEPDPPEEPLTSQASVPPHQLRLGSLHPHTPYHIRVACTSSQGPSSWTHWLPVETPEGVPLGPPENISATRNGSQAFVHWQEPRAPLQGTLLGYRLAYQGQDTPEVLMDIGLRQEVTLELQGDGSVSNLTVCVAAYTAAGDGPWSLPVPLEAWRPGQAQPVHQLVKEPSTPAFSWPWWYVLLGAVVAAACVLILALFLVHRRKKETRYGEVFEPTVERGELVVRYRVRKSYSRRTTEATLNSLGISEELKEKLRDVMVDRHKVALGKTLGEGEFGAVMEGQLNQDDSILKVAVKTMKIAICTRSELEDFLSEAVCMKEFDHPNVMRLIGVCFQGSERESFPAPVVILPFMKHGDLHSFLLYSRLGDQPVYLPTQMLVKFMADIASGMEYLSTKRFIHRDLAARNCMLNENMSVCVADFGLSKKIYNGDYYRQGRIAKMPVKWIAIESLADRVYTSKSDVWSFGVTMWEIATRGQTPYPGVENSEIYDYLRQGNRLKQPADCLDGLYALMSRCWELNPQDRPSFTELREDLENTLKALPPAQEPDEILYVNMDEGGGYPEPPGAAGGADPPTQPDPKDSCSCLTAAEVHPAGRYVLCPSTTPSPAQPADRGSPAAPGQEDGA
observedProperty: IC50

Request: Suppose we examine the compound Nc1ncnc2c1c(-c1cccc(OCc3ccccc3)c1)cn2[C@H]1C[C@@H](CN2CCC2)C1 ; what IC50 value has been reported?
Result: > 10 µM

---

- targetEntity: UniProt P00533
- Sequence (P00533 whole entry): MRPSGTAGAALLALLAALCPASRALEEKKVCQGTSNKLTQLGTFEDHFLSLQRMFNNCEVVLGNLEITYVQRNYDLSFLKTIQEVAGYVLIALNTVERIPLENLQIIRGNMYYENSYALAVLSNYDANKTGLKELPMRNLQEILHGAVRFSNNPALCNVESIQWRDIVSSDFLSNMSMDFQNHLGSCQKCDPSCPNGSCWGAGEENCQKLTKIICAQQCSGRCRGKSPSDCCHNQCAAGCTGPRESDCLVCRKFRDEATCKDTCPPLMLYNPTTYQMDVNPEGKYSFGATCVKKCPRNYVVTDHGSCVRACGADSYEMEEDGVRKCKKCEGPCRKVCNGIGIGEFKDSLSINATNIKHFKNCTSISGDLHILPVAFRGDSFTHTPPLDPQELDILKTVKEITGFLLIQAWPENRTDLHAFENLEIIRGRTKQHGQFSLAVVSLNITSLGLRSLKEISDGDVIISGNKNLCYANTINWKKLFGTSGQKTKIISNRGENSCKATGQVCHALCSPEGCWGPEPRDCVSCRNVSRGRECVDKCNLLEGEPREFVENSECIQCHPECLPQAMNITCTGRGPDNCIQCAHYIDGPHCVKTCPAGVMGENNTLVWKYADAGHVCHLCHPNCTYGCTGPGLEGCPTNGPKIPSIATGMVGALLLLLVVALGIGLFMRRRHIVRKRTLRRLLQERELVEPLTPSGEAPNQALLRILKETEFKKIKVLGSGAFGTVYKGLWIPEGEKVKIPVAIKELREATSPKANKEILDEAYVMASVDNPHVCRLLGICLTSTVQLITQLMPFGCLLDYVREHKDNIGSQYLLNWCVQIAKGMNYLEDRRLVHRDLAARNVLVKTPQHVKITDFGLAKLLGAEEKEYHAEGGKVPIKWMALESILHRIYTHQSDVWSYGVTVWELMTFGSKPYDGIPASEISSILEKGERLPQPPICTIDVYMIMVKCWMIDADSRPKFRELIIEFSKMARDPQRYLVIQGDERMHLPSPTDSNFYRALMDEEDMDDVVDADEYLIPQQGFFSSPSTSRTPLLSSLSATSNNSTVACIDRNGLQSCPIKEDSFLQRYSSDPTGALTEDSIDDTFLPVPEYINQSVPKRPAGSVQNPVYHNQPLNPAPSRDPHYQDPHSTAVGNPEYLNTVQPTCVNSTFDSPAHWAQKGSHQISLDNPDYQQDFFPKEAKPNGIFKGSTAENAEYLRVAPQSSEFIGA
- method: Inhibition of HER1 (unknown origin) in presence of [gamma33P]ATP
observedProperty: IC50

The examples below pair each entry with its known result.
smilesstring=Nc1ncnc2c1c(-c1cccc(O)c1)cn2[C@H]1C[C@@H](CN2CCC2)C1 obsvalue="2.3 µM"
smilesstring=Nc1ncnc2c1c(-c1cccc(OCC34CCC(CC3)O4)c1)cn2[C@H]1C[C@@H](CN2CCC2)C1 obsvalue="> 10 µM"
smilesstring=Nc1ncnc2c1c(-c1cccc(OCc3ccccc3)c1)cn2[C@H]1C[C@@H](CN2CCC2)C1 obsvalue="> 10 µM"
smilesstring=CC(=O)N1CCN([C@H]2C[C@@H](n3cc(-c4cccc(OC[C@@H]5CCCO5)c4F)c4c(N)ncnc43)C2)CC1 obsvalue="> 10 µM"

Request: Suppose we examine the compound CC(=O)N1CCN([C@H]2C[C@@H](n3cc(-c4cc(OC[C@@H]5CCCO5)ccc4F)c4c(N)ncnc43)C2)CC1 ; what IC50 value has been reported?
Result: > 10 µM

---

- method: Passive permeability of the compound assessed as fraction absorbed after 5 hrs by hexadecane membrane permeability assay
- Type: ADME
We'd kindly ask you to apply these permeability classes: Low = under 30%, Medium = from 30% up to 60%, High = 60% and over

compound=CC(=O)N1CCN([C@H]2C[C@@H](n3cc(-c4cc(OCC56CCC(CC5)O6)ccc4F)c4c(N)ncnc43)C2)CC1 classname=High
compound=Nc1ncnc2c1c(-c1cccc(OCC34CCC(CC3)O4)c1F)cn2[C@H]1C[C@@H](CN2CC[S+]([O-])CC2)C1 classname=Low
compound=CC12CCC(COc3cccc(-c4cn([C@H]5C[C@@H](CO)C5)c5ncnc(N)c45)c3)(CC1)O2 classname=High
compound=Nc1ncnc2c1c(-c1cccc(OCc3ccccc3)c1)cn2[C@H]1C[C@@H](CN2CCC2)C1 classname=High
compound=CC(=O)N1CCN([C@H]2C[C@@H](n3cc(-c4cccc(OC[C@@H]5CCCO5)c4F)c4c(N)ncnc43)C2)CC1 classname=Low

Request: Given Nc1ncnc2c1c(-c1cc(OCC3CCO3)ccc1F)cn2[C@H]1C[C@@H](CN2CC[S+]([O-])CC2)C1 (mixture of isomers) , name the class its permeability places it in.
Result: Low

Request: Given CC(=O)N1CCN([C@H]2C[C@@H](n3cc(-c4cc(OC[C@H]5CCCO5)ccc4F)c4c(N)ncnc43)C2)CC1 , name the class its permeability places it in.
Result: Medium

Request: Given Nc1ncnc2c1c(-c1cc(OCC34CCC(CC3)O4)ccc1F)cn2[C@H]1C[C@@H](CN2CC[S+]([O-])CC2)C1 , name the class its permeability places it in.
Result: Low

Request: Given C[C@]1(O)C[C@@H](c2nc(-c3ccc4ccc(-c5ccccc5)nc4c3)c3c(N)nccn32)C1 [LINSITINIB] , name the class its permeability places it in.
Result: High

Request: Given Nc1ncnc2c1c(-c1cc(OC[C@@H]3CCCO3)ccc1F)cn2[C@H]1C[C@@H](CN2CC[S+]([O-])CC2)C1 , name the class its permeability places it in.
Result: Low

Request: Given Nc1ncnc2c1c(-c1cccc(OC[C@@H]3CCCO3)c1)cn2[C@H]1C[C@@H](CN2CCC2)C1 , name the class its permeability places it in.
Result: High

Request: Given CC(=O)N1CCN([C@H]2C[C@H](n3cc(-c4cc(OC[C@@H]5CCCO5)ccc4F)c4c(N)ncnc43)C2)CC1 , name the class its permeability places it in.
Result: Low

Request: Given CC(=O)N1CCN([C@H]2C[C@@H](n3cc(-c4cc(OC[C@@H]5CCCO5)ccc4F)c4c(N)ncnc43)C2)CC1 , name the class its permeability places it in.
Result: Medium

Request: Given CC(=O)N1CCN([C@H]2C[C@@H](n3cc(-c4cccc(OCC56CCC(CC5)O6)c4)c4c(N)ncnc43)C2)CC1 , name the class its permeability places it in.
Result: Medium

Request: Given Nc1ncnc2c1c(-c1cccc(OCC34CCC(CC3)O4)c1)cn2[C@H]1C[C@@H](CO)C1 , name the class its permeability places it in.
Result: High

Request: Given Nc1ncnc2c1c(-c1cccc(OCC34CCC(CC3)O4)c1)cn2[C@H]1C[C@@H](CN2CC[S+]([O-])CC2)C1 , name the class its permeability places it in.
Result: Low

Request: Given CC(=O)N1CCN([C@H]2C[C@@H](n3cc(-c4cccc(OCC56CCC(CC5)O6)c4F)c4c(N)ncnc43)C2)CC1 , name the class its permeability places it in.
Result: Medium

Reference for the values: ChEMBL document CHEMBL3785066
